Taken from ChEMBL document CHEMBL1133206.

# System: Aspergillus niger
# Assay info: In vitro antifungal activity at a minimum inhibitory concentration (~100 ug/mL) against Aspergillus niger; Not affected
# Format: functional
# Test settings: Aspergillus niger; read-out: MIC
Measured MIC accompanies every entry in the list below.

[
  {
    "Smiles notation": "CO[C@@H]1C[C@H](C[C@@H](C)[C@@H]2CC(=O)[C@H](C)/C=C(\\C)[C@@H](O)[C@@H](OC)C(=O)[C@H](C)C[C@H](C)/C=C/C=C/C=C(\\C)[C@H](c3ccc(C)s3)C[C@@H]3CC[C@@H](C)[C@@](O)(O3)C(=O)C(=O)N3CCCC[C@H]3C(=O)O2)CC[C@H]1O",
    "Measured property": "MIC",
    "Reported measurement": "~100 µg/mL"
  }
]

Query block: State its MIC: CO[C@@H]1C[C@H](C[C@@H](C)[C@@H]2CC(=O)[C@H](C)/C=C(\C)[C@@H](O)[C@@H](OC)C(=O)[C@H](C)C[C@H](C)/C=C/C=C/C=C(\C)[C@@H](N(O)C(=O)N3CCOCC3)C[C@@H]3CC[C@@H](C)[C@@](O)(O3)C(=O)C(=O)N3CCCC[C@H]3C(=O)O2)CC[C@H]1O
Result block: ~100 µg/mL

Query block: State its MIC: CCCCOC(=O)N(O)[C@@H]1C[C@@H]2CC[C@@H](C)[C@@](O)(O2)C(=O)C(=O)N2CCCC[C@H]2C(=O)O[C@H]([C@H](C)C[C@@H]2CC[C@@H](O)[C@H](OC)C2)CC(=O)[C@H](C)/C=C(\C)[C@@H](O)[C@@H](OC)C(=O)[C@H](C)C[C@H](C)/C=C/C=C/C=C/1C
Result block: ~100 µg/mL
